tested on: SK-MEL-28 melanoma; assay: NCI tumour cell line growth inhibition, 48 h
ENDPOINT_LABEL: TGI

COMPOUND	SUBJECT_OF_TEST	ENDPOINT_LABEL	RESULT
O=C(Nc1ccccc1)c1cccc([N+](=O)[O-])c1	SK-MEL-28 melanoma	TGI	> 100 µM
CN1C(C)(C)CC(=O)C(Br)C1(C)C (stereo not given)	SK-MEL-28 melanoma	TGI	> 100 µM
NS(=O)(=O)c1ccc(N=C2C(=O)Nc3ccccc32)cc1	SK-MEL-28 melanoma	TGI	> 100 µM
O=C(NS(=O)(=O)c1ccc(NC[C@H]2COCCO2)c([N+](=O)[O-])c1)c1ccc(N2CCN(CC3=C(c4ccc(Cl)cc4)CC4(CCC4)CC3)CC2)cc1Oc1cnc2[nH]ccc2c1	SK-MEL-28 melanoma	TGI	3.39 µM
Cc1cnc2c(c1)C(=O)N(c1ccc([N+](=O)[O-])cc1)S2(=O)=O	SK-MEL-28 melanoma	TGI	> 100 µM

Origin of the recorded values: PubChem BioAssay (NCI)
